- assayed target: Ubiquitin carboxyl-terminal hydrolase 28 (Homo sapiens)
pIC50: −log10 of the molar value.
// not met strictly below 5 in pIC50; met otherwise

# count of solved cases: 2
Given the entry CCOc1ccc(NC(=O)Cn2c(=O)n(CCC(=O)NCc3ccccc3OC)c(=O)c3ccccc32)cc1 , answer whether its pIC50 meets or surpasses 5.
met

Param item: CC(OC(=O)CNC(=O)c1ccc(Br)cc1)C(=O)Nc1ccc2c(c1)OCCO2 (stereo not given)
not met

For the next question, use this compound.
Given the entry O=C(NC1CCN(Cc2ccccc2)CC1)c1[nH]nc2c1COc1ccccc1-2 , answer whether its pIC50 meets or surpasses 5.
met

====

- assayed target: Ubiquitin carboxyl-terminal hydrolase 28 (Homo sapiens)
- test description: Concentration-response biochemical assay confirming initial hits as inhibitors of ubiquitin-specific protease 28 (AID 1645866)
- test settings: purified USP28, ubiquitin-rhodamine fluorescence, 30 min
The source made the active and inactive calls.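 How the source made its calls: active means in confirmatory dose-response testing, peak deubiquitinase inhibition of 30% or more; inactive means the rest.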
Returns: one label drawn from 1.0 = active, 0.0 = inactive

In this assay, the call recorded for CCc1cc2c(=O)[nH]c(Cc3ccc(OC)cc3)nc2s1 was what?
1.0

For the next question, use this compound.
In this assay, the call recorded for O=C(NCc1ccc(Cl)cc1)c1ccc(N2CCCS2(=O)=O)cc1 was what?
0.0
